The origin of these recorded values is patent US20100261620A1.

biological target: IL-13 (Homo sapiens (Human), UniProt P35225 35-146, limits assumed); assay: Biacore
Sequence (P35225 35-146 limits assumed): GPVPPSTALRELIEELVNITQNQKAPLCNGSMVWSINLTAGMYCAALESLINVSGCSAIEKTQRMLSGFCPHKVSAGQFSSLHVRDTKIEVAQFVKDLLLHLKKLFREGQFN
Each entry below carries its recorded kon.
Respond numerically; units are M⁻¹ s⁻¹ and should not be typed.

Consider the reported kon for these binders:
[in] // kon lookup, key: M475 (antibody, V domains shown, anti-IL-13, human IgG1) VH: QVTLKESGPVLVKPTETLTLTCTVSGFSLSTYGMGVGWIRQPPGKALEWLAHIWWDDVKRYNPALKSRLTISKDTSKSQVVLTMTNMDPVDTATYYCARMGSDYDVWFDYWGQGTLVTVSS VL: EIVLTQSPATLSLSPGERATLSCRASKSISKYLAWYQQKPGQAPRLLIYSGSTLQSGIPARFSGSGSGTDFTLTISSLEPEDFAVYYCQQHLMGPYTFGQGTKLEIK
[out] 1.14e+06

[in] Quick one: kon of M444 (antibody, V domains shown, anti-IL-13, human IgG1) VH: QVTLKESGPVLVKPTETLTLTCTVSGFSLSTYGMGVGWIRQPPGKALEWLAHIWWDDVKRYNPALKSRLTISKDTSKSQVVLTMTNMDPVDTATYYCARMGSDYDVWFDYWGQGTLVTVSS VL: EIVLTQSPATLSLSPGERATLSCRASKSISKYLAWYQQKPGQAPRLLIYSGSTLQSGIPARFSGSGSGTDFTLTISSLEPEDFAVYYCQQHVWGPYTFGQGTKLEIK ?
[out] 1.2e+06

[in] Report kon for M463 (antibody, V domains shown, anti-IL-13, human IgG1) VH: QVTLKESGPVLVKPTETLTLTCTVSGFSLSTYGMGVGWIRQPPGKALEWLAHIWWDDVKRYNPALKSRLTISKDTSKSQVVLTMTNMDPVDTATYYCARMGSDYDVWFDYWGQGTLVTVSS VL: EIVLTQSPATLSLSPGERATLSCRASKSISKYLAWYQQKPGQAPRLLIYSGSTLQSGIPARFSGSGSGTDFTLTISSLEPEDFAVYYCQQQDLGPYTFGQGTKLEIK please.
[out] 1.7e+06

[in] Recorded kon of M453 (antibody, V domains shown, anti-IL-13, human IgG1) VH: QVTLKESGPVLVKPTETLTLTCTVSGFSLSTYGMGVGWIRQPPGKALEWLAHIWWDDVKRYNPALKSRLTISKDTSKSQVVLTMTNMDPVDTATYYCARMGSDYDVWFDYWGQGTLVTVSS VL: EIVLTQSPATLSLSPGERATLSCRASKSISKYLAWYQQKPGQAPRLLIYSGSTLQSGIPARFSGSGSGTDFTLTISSLEPEDFAVYYCQQHDWGPYTFGQGTKLEIK , please.
[out] 1.06e+06

Here is another binder to look at.
[in] Entry M445 (antibody, V domains shown, anti-IL-13, human IgG1) VH: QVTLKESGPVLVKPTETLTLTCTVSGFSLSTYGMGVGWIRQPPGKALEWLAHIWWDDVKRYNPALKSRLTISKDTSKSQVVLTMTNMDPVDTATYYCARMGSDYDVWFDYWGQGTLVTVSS VL: EIVLTQSPATLSLSPGERATLSCRASKSISKYLAWYQQKPGQAPRLLIYSGSTLQSGIPARFSGSGSGTDFTLTISSLEPEDFAVYYCQQHLLGPYTFGQGTKLEIK has what kon?
[out] 1.11e+06
